PROTOCOL_DESCRIPTION: Pharmacokinetic/pharmacodynamic analysis of phospho-ALK
Assay type: in vivo, mice
CONDITION: SCID/beige, mouse, plasma, oral
RECORDED_METRIC: concentration at 2 h (nM)
Just the number please, in nM, no unit attached.

Identify the reported concentration at 2 h for the following entry. `CC1(C)COc2ccc(F)cc2CN2c3nc4c(cnn4cc3OC[C@H]2C(F)F)C(=O)N1`
19.5

###

PROTOCOL_DESCRIPTION: Free
Assay type: in vivo, mice
CONDITION: SCID/beige, mouse, plasma, oral, 5 mg/kg
RECORDED_METRIC: concentration at 12 h (nM)
Just the number please, in nM, no unit attached.

Identify the reported concentration at 12 h for the following entry. `C[C@H]1Oc2cc(cnc2N)-c2c(nn(C)c2C#N)CN(C)C(=O)c2ccc(F)cc21`
358
